# Test system: ATP;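 further: ATP exposure 15 min at 22 °C before imaging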
# Assay: switch fluorescence ratio, 500 uM ATP over buffer (Cy3 cluster intensity, sum of 5 cycles each) (fold (ratio)); higher = stronger signal-on switching upon ATP binding; sequences stand for … in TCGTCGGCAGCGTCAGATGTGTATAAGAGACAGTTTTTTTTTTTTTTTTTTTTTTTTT…TC
# Assay Setup: aptamer strand: ATP DNA aptamer (quencher-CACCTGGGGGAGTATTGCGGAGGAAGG + anchor), 100 nM annealed; ATP concentration: 500 uM

{"columns": ["Biopolymer Sequence", "Measured Target", "switch fluorescence ratio"],
 "data": [
  ["AGTATAAAAA", "ATP", 1.03],
  ["GTTGTTCTGA", "ATP", 0.972],
  ["TAGTTGGGCG", "ATP", 0.984],
  ["GCAGGACGAC", "ATP", 2.38],
  ["CATGGTGTTA", "ATP", 1.01],
  ["AGAAAGTTGA", "ATP", 1.02],
  ["GCTACGGGGG", "ATP", 1.02],
  ["CGACTCATAT", "ATP", 1.52],
  ["GAGTAATGTT", "ATP", 1.02],
  ["GGGTCCGCTG", "ATP", 1.06],
  ["GTGAAAGGGC", "ATP", 1.01],
  ["GCTATTTACT", "ATP", 1.06],
  ["TTTAACGGGG", "ATP", 0.987],
  ["TTTTTCACGC", "ATP", 1.04],
  ["CGTAATGTCT", "ATP", 1.06],
  ["TTATGTCTTG", "ATP", 1.01],
  ["ATCCTTTCAG", "ATP", 0.995],
  ["AGGACGGCCA", "ATP", 0.998],
  ["CGGTAACGAA", "ATP", 1.04],
  ["TTTTAGATAG", "ATP", 1.06],
  ["AGGGGTTTTT", "ATP", 0.991],
  ["AAGCGTAGAT", "ATP", 1.01],
  ["TTCGGGTGCC", "ATP", 1.03],
  ["CTATACGGGG", "ATP", 0.976],
  ["TACGCATTTG", "ATP", 1.08],
  ["AGTTGGGGTA", "ATP", 1],
  ["TCCTTATTGG", "ATP", 1],
  ["TAGGGGAAAG", "ATP", 0.99],
  ["TTCAACTGGT", "ATP", 0.996],
  ["AAAAGACGGG", "ATP", 1.03],
  ["AATCGGAATT", "ATP", 1.01],
  ["TAATGTTCTC", "ATP", 1.02],
  ["ATGAGGGTTC", "ATP", 0.981],
  ["GAGCTCTTTC", "ATP", 1.01],
  ["TGGGGCAGCA", "ATP", 1.01],
  ["TTATAAGTGG", "ATP", 0.991],
  ["TTATCACACT", "ATP", 1.02],
  ["TCCGATTTAT", "ATP", 0.989],
  ["TTTTTATTAG", "ATP", 0.983],
  ["GGGTGGCAGC", "ATP", 0.993],
  ["TACACTTCTC", "ATP", 1.08],
  ["GTAAGGGAAA", "ATP", 1.02],
  ["TCGAATGTGC", "ATP", 0.989]
]}

----------
# Tested on: ATP;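 further: ATP exposure 15 min at 22 °C before imaging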
# Assay: switch fluorescence ratio, 500 uM ATP over buffer (Cy3 cluster intensity, sum of 5 cycles each) (fold (ratio)); higher = stronger signal-on switching upon ATP binding; sequences stand for … in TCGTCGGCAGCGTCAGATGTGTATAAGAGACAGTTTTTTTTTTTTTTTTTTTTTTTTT…TC
# Assay Setup: aptamer strand: ATP DNA aptamer (quencher-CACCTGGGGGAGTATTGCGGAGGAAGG + anchor), 100 nM annealed; ATP concentration: 500 uM
Parameter threshold = 1. Response is label 1 when switch fluorescence ratio meets or exceeds it, else label 0.

{"columns": ["Biopolymer Sequence", "Answer Label"],
 "data": [
  ["CATAAGCCTC", "label 1"],
  ["GCGTCAAGAT", "label 1"],
  ["CGGATGGCC", "label 0"],
  ["AAGCTGGGAC", "label 1"],
  ["TGGGTATATA", "label 1"]
]}

----------
# Tested on: ATP;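 further: ATP exposure 15 min at 22 °C before imaging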
# Assay: switch fluorescence ratio, 500 uM ATP over buffer (Cy3 cluster intensity, sum of 5 cycles each) (fold (ratio)); higher = stronger signal-on switching upon ATP binding; sequences stand for … in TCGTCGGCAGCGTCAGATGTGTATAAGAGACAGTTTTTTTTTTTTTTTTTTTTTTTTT…TC
# Assay Setup: aptamer strand: ATP DNA aptamer (quencher-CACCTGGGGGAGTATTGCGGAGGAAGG + anchor), 100 nM annealed; ATP concentration: 500 uM
Value Type: switch fluorescence ratio

{"columns": ["Biopolymer Sequence", "Measured Target", "Endpoint Value"],
 "data": [
  ["CTGGAAAGGG", "ATP", 0.96],
  ["AAAGGGGGCA", "ATP", 0.99],
  ["TAAGTGCCAA", "ATP", 1.01],
  ["TTGACTAAGG", "ATP", 1.01],
  ["TTCCGGTAAT", "ATP", 1.23],
  ["TTAGGGGGCC", "ATP", 1.07],
  ["CTGTGGGTTG", "ATP", 1],
  ["TCGCCAATTG", "ATP", 1.06],
  ["AGGGGTATTG", "ATP", 0.993],
  ["TTTAAGAATC", "ATP", 0.994],
  ["GGGACTTACC", "ATP", 1.08],
  ["TTTATGTTAT", "ATP", 1.1],
  ["GGAATGAGGA", "ATP", 0.992],
  ["TGGTTGTGGG", "ATP", 0.996],
  ["TTTTCTGAGG", "ATP", 1.01],
  ["GACATGGGGC", "ATP", 1.04],
  ["CGGTACTGAT", "ATP", 1.03],
  ["AAGAATGTGT", "ATP", 0.978],
  ["CTTGTACTAA", "ATP", 1.01],
  ["AATGTTGAAG", "ATP", 0.987],
  ["ATTCTGATTG", "ATP", 1.02],
  ["TCAAGTTAAG", "ATP", 0.977],
  ["TGGGCTATAG", "ATP", 1.03],
  ["AGCATTGTGG", "ATP", 0.996],
  ["GCTGGGAGTC", "ATP", 1],
  ["GGGCCTGGAA", "ATP", 1.01],
  ["TGGTACGGTC", "ATP", 0.927],
  ["GGGTTTTACA", "ATP", 0.981],
  ["CGTTTGTCAG", "ATP", 0.965],
  ["GATGGCCACG", "ATP", 0.988],
  ["CAACTGTTTT", "ATP", 1.04],
  ["GAGATTGGTT", "ATP", 1.01],
  ["CATGTATGGA", "ATP", 1.01],
  ["AGGTCTTCCG", "ATP", 1],
  ["TAGTCCATCG", "ATP", 0.998],
  ["ACTTCGTTCT", "ATP", 1.03],
  ["AAGTGGTGTT", "ATP", 0.984],
  ["CGGGGTCCTG", "ATP", 1.03],
  ["TTAACGGTTT", "ATP", 0.988],
  ["CTCATCGGTC", "ATP", 1.02],
  ["CCTGGGCCGG", "ATP", 1.06],
  ["TTGTTGGGGA", "ATP", 1],
  ["GGGTTAATTT", "ATP", 1]
]}

----------
# Tested on: ATP;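 further: ATP exposure 15 min at 22 °C before imaging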
# Assay: switch fluorescence ratio, 500 uM ATP over buffer (Cy3 cluster intensity, sum of 5 cycles each) (fold (ratio)); higher = stronger signal-on switching upon ATP binding; sequences stand for … in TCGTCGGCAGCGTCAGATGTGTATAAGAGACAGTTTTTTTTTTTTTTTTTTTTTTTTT…TC
# Assay Setup: aptamer strand: ATP DNA aptamer (quencher-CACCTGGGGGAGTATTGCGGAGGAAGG + anchor), 100 nM annealed; ATP concentration: 500 uM

{"columns": ["Biopolymer Sequence", "switch fluorescence ratio"],
 "data": [
  ["GGGATGGGAG", 1.02],
  ["ACGCTACATT", 1.39],
  ["CGTATATTGT", 0.983],
  ["TAATAGGCTT", 1.01],
  ["TGGTCTCTAA", 0.98],
  ["ATTTGGAGGG", 0.969],
  ["CAGTAATTGT", 0.986],
  ["TGGAGGTTAT", 0.994],
  ["ATGGTATGAA", 0.979],
  ["TTAGTTTATC", 1.02],
  ["CCGTTTTTTG", 1],
  ["TTAAATTGAT", 0.987],
  ["TACGATTTGG", 0.993],
  ["TTTGCCAGTT", 0.985],
  ["AAATAAACGG", 1.08],
  ["TTGGTTCTGG", 0.962],
  ["CGGGTAGGGC", 1.01],
  ["TTGGTTGGGT", 0.997],
  ["AAGATGAGCT", 1],
  ["ATCTTTAAGT", 0.993]
]}

Data provenance is the supplement of paper PMC10126150.
